Measured pIC50 by item
# measurement_target: Serotonin 3 (5-HT3) receptor (Rattus norvegicus, UniProt P35563+Q9JJ16)
# Sequence (P35563 whole entry): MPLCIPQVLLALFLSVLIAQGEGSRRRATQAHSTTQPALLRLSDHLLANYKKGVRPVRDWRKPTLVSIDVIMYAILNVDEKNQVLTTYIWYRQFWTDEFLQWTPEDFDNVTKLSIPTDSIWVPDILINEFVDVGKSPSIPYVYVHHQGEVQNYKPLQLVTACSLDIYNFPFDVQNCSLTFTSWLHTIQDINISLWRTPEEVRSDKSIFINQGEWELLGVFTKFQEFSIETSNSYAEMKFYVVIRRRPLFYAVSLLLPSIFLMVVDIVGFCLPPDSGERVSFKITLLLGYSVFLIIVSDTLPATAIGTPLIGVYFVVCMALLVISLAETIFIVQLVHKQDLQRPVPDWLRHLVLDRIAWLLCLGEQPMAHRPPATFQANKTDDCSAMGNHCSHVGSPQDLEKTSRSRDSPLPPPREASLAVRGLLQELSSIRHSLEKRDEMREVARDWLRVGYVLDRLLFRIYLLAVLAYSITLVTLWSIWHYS
# Sequence (Q9JJ16 whole entry): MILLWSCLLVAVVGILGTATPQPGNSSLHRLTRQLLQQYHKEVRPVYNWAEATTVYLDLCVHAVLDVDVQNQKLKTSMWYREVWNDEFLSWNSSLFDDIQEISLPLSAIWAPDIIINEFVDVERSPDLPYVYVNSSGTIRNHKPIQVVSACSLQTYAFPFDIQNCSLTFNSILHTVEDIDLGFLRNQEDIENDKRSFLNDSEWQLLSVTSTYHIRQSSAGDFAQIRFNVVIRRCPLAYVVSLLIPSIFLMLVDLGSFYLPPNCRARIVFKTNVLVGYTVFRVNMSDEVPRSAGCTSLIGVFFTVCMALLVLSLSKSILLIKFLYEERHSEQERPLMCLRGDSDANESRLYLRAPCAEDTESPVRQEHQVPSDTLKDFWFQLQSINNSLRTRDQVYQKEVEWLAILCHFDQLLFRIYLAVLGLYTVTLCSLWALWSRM
# assay_explanation: Binding affinity was evaluated in vitro by displacement of [3H]zacopride radioligand from 5-hydroxytryptamine 3 receptor
pIC50: −log10 of the molar value.
readout: pIC50

>>> df
                                   compound  number
0  COc1cc(N)c(Cl)cc1C(=O)NC1CN2CCC1CC2 (stereo unspecified) [ZACOPRIDE]    8.66
1  CN1C2CCC1CC(Oc1nc3ccccc3s1)C2 (stereo unspecified)    8.16
2  CN1[C@@H]2CC[C@H]1C[C@@H](OC(=O)c1c[nH]c3ccccc13)C2    8.64
3  CN1[C@@H]2CC[C@H]1C[C@@H](OC(=O)c1cc(Cl)cc(Cl)c1)C2    7.37
4  c1ccc2nc(OC3CN4CCC3CC4)ccc2c1 (stereo unspecified)    7.32
5  CN1C2CCC1CC(Oc1ccc3ccccc3n1)C2 (stereo unspecified)    7.40

Data credit: ChEMBL document CHEMBL1126403
